Examples of compounds with documented pIC50 follow.
# ASSAYED_SYSTEM: human recombinant ETA receptor (Homo sapiens)
# TEST_PROTOCOL: Inhibition of [125I]ET-1 binding to membranes from CHO cells carrying human ETA receptors
Interpret pIC50 as the negative base-10 log of the concentration measured in mol/L.

>  <ENTRY_SMILES>
COc1ccccc1Oc1c(NS(=O)(=O)NCc2ccccc2)nc(-c2ccncc2)nc1OCCOc1ncc(SC)cn1

>  <ASSAYED_SYSTEM>
human recombinant ETA receptor (Homo sapiens)

>  <EXPERIMENTAL_VALUE>
8.74

$$$$
>  <ENTRY_SMILES>
COc1ccccc1Oc1c(NS(=O)(=O)NCc2ccc(F)cc2)nc(-c2ncccn2)nc1OCCOc1ncc(Br)cn1

>  <ASSAYED_SYSTEM>
human recombinant ETA receptor (Homo sapiens)

>  <EXPERIMENTAL_VALUE>
8.59

$$$$
>  <ENTRY_SMILES>
Cc1cnc(OCCOc2ncnc(NS(=O)(=O)NCc3ccccc3)c2-c2ccc(Cl)cc2)nc1

>  <ASSAYED_SYSTEM>
human recombinant ETA receptor (Homo sapiens)

>  <EXPERIMENTAL_VALUE>
7.35

$$$$
>  <ENTRY_SMILES>
COc1cnc(OCCOc2ncnc(NS(=O)(=O)NCC3CC3)c2-c2ccc(Cl)cc2)nc1

>  <ASSAYED_SYSTEM>
human recombinant ETA receptor (Homo sapiens)

>  <EXPERIMENTAL_VALUE>
8.37

$$$$
>  <ENTRY_SMILES>
COc1ccc(CNS(=O)(=O)Nc2nc(-c3ccncc3)nc(OC)c2Oc2ccccc2OC)cc1

>  <ASSAYED_SYSTEM>
human recombinant ETA receptor (Homo sapiens)

>  <EXPERIMENTAL_VALUE>
8.21

$$$$

Identify pIC50 associated with the compound COc1ccc(CNS(=O)(=O)Nc2ncnc(OCCOc3ncc(Br)cn3)c2Oc2cc(OC)ccc2Cl)cc1
9.36

----------
Examples of compounds with documented pIC50 follow.
# ASSAYED_SYSTEM: human recombinant ETA receptor (Homo sapiens, UniProt P25101)
# Sequence (P25101 21-427): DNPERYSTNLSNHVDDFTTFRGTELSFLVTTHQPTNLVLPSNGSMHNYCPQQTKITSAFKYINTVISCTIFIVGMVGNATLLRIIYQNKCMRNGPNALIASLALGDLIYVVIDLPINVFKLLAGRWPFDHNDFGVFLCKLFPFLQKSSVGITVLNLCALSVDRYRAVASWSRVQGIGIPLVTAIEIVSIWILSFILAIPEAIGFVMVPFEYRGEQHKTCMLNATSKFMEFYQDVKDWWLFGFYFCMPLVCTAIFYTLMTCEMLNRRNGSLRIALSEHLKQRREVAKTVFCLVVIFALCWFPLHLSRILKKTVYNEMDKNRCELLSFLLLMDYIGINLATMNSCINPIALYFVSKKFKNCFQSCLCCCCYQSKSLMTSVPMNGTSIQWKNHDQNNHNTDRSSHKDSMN
# TEST_PROTOCOL: Inhibition of [125I]ET-1 binding to membranes from CHO cells carrying human ETA receptors
Interpret pIC50 as the negative base-10 log of the concentration measured in mol/L.

Worked cases, pIC50 given:
>  <COMPOUND>
COc1ccc(CNS(=O)(=O)Nc2nc(-c3ncccn3)nc(OCCOc3ncccn3)c2Oc2ccccc2OC)cc1OC [Example 167]

>  <pIC50>
8.28

$$$$
>  <COMPOUND>
COc1ccc(Cl)c(Oc2c(NS(=O)(=O)NCc3ccc4c(c3)OCO4)ncnc2OCCOc2ncc(Br)cn2)c1 [Example 151]

>  <pIC50>
9.11

$$$$
>  <COMPOUND>
CSc1cnc(OCCOc2nc(-c3ccncc3)nc(NS(=O)(=O)NCc3ccccc3)c2-c2ccc(C)cc2)nc1 [Example 33]

>  <pIC50>
8.43

$$$$
>  <COMPOUND>
COc1ccc(Cl)c(Oc2c(NS(=O)(=O)NCc3ccccc3)ncnc2OCCO)c1 [Example 211]

>  <pIC50>
6.54

$$$$
>  <COMPOUND>
COc1ccc(CNS(=O)(=O)Nc2ncnc(OCCOc3ncc(OC)cn3)c2Oc2cc(OC)ccc2Cl)cc1 [Example 164]

>  <pIC50>
9.00

$$$$
>  <COMPOUND>
COc1ccccc1Oc1c(NS(=O)(=O)NCc2ccccc2)nc(-c2ncccn2)nc1OCCOc1ncc(Br)cn1 [Example 37]

>  <pIC50>
7.80

$$$$

Specify pIC50 for COc1ccccc1Oc1c(NS(=O)(=O)NCc2ccccc2)ncnc1OCCOc1ncc(Br)cn1 [Example 96] , system human recombinant ETA receptor (Homo sapiens, UniProt P25101).
8.20

Specify pIC50 for CCc1ccc(-c2c(NS(=O)(=O)NCc3ccccc3)ncnc2OCCOc2ncc(Br)cn2)cc1 [Example 29] , system human recombinant ETA receptor (Homo sapiens, UniProt P25101).
7.87

Specify pIC50 for COc1ccccc1Oc1c(NS(=O)(=O)NCc2ccco2)nc(-c2ncccn2)nc1OCCOC(=O)Nc1cnccn1 [Example 61] , system human recombinant ETA receptor (Homo sapiens, UniProt P25101).
8.80

Specify pIC50 for COc1ccccc1Oc1c(NS(=O)(=O)NCc2ccccc2)nc(-c2ncccn2)nc1OCCOC(=O)Nc1ccccc1 [Example 43] , system human recombinant ETA receptor (Homo sapiens, UniProt P25101).
8.17

Specify pIC50 for COc1ccccc1Oc1c(NS(=O)(=O)Nc2ccc(C(C)C)cc2)nc(-c2ccncc2)nc1OCCOc1ncccn1 [Example 4] , system human recombinant ETA receptor (Homo sapiens, UniProt P25101).
7.02
